Test system: STAPHYLOCOCCUS EPIDERMIDIS 3519
Type: cell-based
Settings: S. epidermidis 3519; BHI agar; unit assumed
Item-by-item account of MIC
Numeric answer only, unit µg/mL assumed.

Reference set (8 entries):
[[record]]
compound = "CCC1OC(=O)C(C)C(=O)C(C)C(OC2OC(C)CC(N(C)C)C2O)C(C)(OC)CC(C)C2=NCC(CSc3ccccc3)(CN(C)Cc3ccccc3)N3C(=O)OC1(C)C3C2C (centres unmarked)"
numeric_value = 1.56

[[record]]
compound = "CCC1OC(=O)C(C)C(=O)C(C)C(OC2OC(C)CC(N(C)C)C2O)C(C)(OC)CC(C)C2=NC(CN)CN3C(=O)OC1(C)C3C2C (centres unmarked)"
numeric_value = 0.2

[[record]]
compound = "CC[C@H]1OC(=O)[C@H](C)C(=O)[C@H](C)[C@@H](O[C@@H]2O[C@H](C)C[C@H](N(C)C)[C@H]2O)[C@](C)(OC)C[C@@H](C)C2=N[C@H](CN(C)Cc3ccccc3)CN3C(=O)O[C@@]1(C)[C@H]3[C@H]2C"
numeric_value = 0.78

[[record]]
compound = "CC[C@H]1OC(=O)[C@H](C)C(=O)[C@H](C)[C@@H](O[C@@H]2O[C@H](C)C[C@H](N(C)C)[C@H]2O)[C@](C)(OC)C[C@@H](C)C2=N[C@@H]3CCCC[C@@H]3N3C(=O)O[C@@]1(C)[C@H]3[C@H]2C"
numeric_value = 0.78

[[record]]
compound = "CCC1OC(=O)C(C)C(=O)C(C)C(OC2OC(C)CC(N(C)C)C2O)C(C)(OC)CC(C)C2=NCC(C)(CN(C)C)N3C(=O)OC1(C)C3C2C (centres unmarked)"
numeric_value = 1.56

[[record]]
compound = "CC[C@H]1OC(=O)[C@H](C)C(=O)[C@H](C)[C@@H](O[C@@H]2O[C@H](C)C[C@H](N(C)C)[C@H]2O)[C@](C)(OC)C[C@@H](C)C2=NCC(CN(C)Cc3ccccc3)N3C(=O)O[C@@]1(C)[C@H]3[C@H]2C (some centres unmarked)"
numeric_value = 0.39

[[record]]
compound = "CC[C@H]1OC(=O)[C@H](C)C(=O)[C@H](C)[C@@H](O[C@@H]2O[C@H](C)C[C@H](N(C)C)[C@H]2O)[C@](C)(OC)C[C@@H](C)C2=N[C@H](COCc3ccccc3F)CN3C(=O)O[C@@]1(C)[C@H]3[C@H]2C"
numeric_value = 0.2

[[record]]
compound = "CC[C@H]1OC(=O)[C@H](C)C(=O)[C@H](C)[C@@H](O[C@@H]2O[C@H](C)C[C@H](N(C)C)[C@H]2O)[C@](C)(OC)C[C@@H](C)C2=N[C@@H]3CNC[C@@H]3N3C(=O)O[C@@]1(C)[C@H]3[C@H]2C"
numeric_value = 0.39


Ask: Can you look up the measured MIC of CC[C@H]1OC(=O)[C@H](C)C(=O)[C@H](C)[C@@H](O[C@@H]2O[C@H](C)C[C@H](N(C)C)[C@H]2O)[C@](C)(OC)C[C@@H](C)C2=NC[C@H](COC(=O)c3ccncc3)N3C(=O)O[C@@]1(C)[C@H]3[C@H]2C for me?
Result: 0.39

Ask: What would you report for CC[C@H]1OC(=O)[C@H](C)C(=O)[C@H](C)[C@@H](O[C@@H]2O[C@H](C)C[C@H](N(C)C)[C@H]2O)[C@](C)(OC)C[C@@H](C)C2=NC[C@H](Cc3ccccc3)N3C(=O)O[C@@]1(C)[C@H]3[C@H]2C ?
Result: 0.2

Ask: What would you report for CCC1OC(=O)C(C)C(=O)C(C)C(OC2OC(C)CC(N(C)C)C2O)C(C)(OC)CC(C)C2=NC(c3ccccc3)C(c3ccccc3)N3C(=O)OC1(C)C3C2C (centres unmarked) ?
Result: 1.56

Ask: What would you report for CCC1OC(=O)C(C)C(=O)C(C)C(OC2OC(C)CC(N(C)C)C2O)C(C)(OC)CC(C)C2=NCC(CCc3ccccc3)N3C(=O)OC1(C)C3C2C (centres unmarked) ?
Result: 0.78

Ask: What would you report for CC[C@H]1OC(=O)[C@H](C)C(=O)[C@H](C)[C@@H](O[C@@H]2O[C@H](C)C[C@H](N(C)C)[C@H]2O)[C@](C)(OC)C[C@@H](C)C2=NCC(COC(=O)c3cccc4[nH]ccc34)N3C(=O)O[C@@]1(C)[C@H]3[C@H]2C (some centres unmarked) ?
Result: 0.1

Ask: What would you report for CC[C@H]1OC(=O)[C@H](C)C(=O)[C@H](C)[C@@H](O[C@@H]2O[C@H](C)C[C@H](N(C)C)[C@H]2O)[C@](C)(OC)C[C@@H](C)C2=N[C@H](COCCN3CCOCC3)CN3C(=O)O[C@@]1(C)[C@H]3[C@H]2C ?
Result: 1.56

Ask: What would you report for CC[C@H]1OC(=O)[C@H](C)C(=O)[C@H](C)[C@@H](O[C@@H]2O[C@H](C)C[C@H](N(C)C)[C@H]2O)[C@](C)(OC)C[C@@H](C)C2=N[C@@H](Cc3ccccc3)CN3C(=O)O[C@@]1(C)[C@H]3[C@H]2C ?
Result: 0.78

Ask: What would you report for CC[C@H]1OC(=O)[C@H](C)C(=O)[C@H](C)[C@@H](O[C@@H]2O[C@H](C)C[C@H](N(C)C)[C@H]2O)[C@](C)(OC)C[C@@H](C)C2=NCC(COC(=O)c3ccnc4ccccc34)N3C(=O)O[C@@]1(C)[C@H]3[C@H]2C (some centres unmarked) ?
Result: 0.05

Ask: What would you report for CC[C@H]1OC(=O)[C@H](C)C(=O)[C@H](C)[C@@H](O[C@@H]2O[C@H](C)C[C@H](N(C)C)[C@H]2O)[C@](C)(OC)C[C@@H](C)C2=N[C@@H]3CN(CCc4ccccc4)C[C@@H]3N3C(=O)O[C@@]1(C)[C@H]3[C@H]2C ?
Result: 0.78
